- Tested on: MOLM14
- Experiment Description: cell viability relative to vehicle control; higher = less cytotoxic;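 further: after 48 h exposure read by CellTiter-Glo luminescence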
- Assay Conditions: 10 µM; SRSF2 genotype: SRSF2 wt/wt
Result Type: cell viability (%)
The answer is to be given in %; state only the numeric part.

{"Compound": "Cc1nc(C)c(C)nc1C [Tetramethylpyrazine]", "Units Symbol": "%", "cell viability": 107}
{"Compound": "COc1cccc2cc(-c3nc([C@H]4CC[C@H](C(=O)O)CC4)n4ncnc(N)c34)[nH]c12", "Units Symbol": "%", "cell viability": 24.9}
{"Compound": "Cc1[nH]c2ccccc2c1C1=C(NCCc2ccc(F)cc2)C(=O)N(C)C1=O", "Units Symbol": "%", "cell viability": 105}

Prompt line: Quick one: cell viability for O=c1[nH]cnc2ccccc12 [4-Hydroxyquinazoline] ?
Response line: 95.5

Prompt line: Quick one: cell viability for CCN(CC)CCNC(=O)c1c(C)[nH]c(/C=C2\C(=O)Nc3ccc(F)cc32)c1C [Sunitinib Malate] ?
Response line: 0.38

Prompt line: Quick one: cell viability for CN(C)C/C=C/C(=O)Nc1ccc(C(=O)Nc2cccc(Nc3ncc(Cl)c(-c4c[nH]c5ccccc45)n3)c2)cc1 ?
Response line: 0.21

Prompt line: Quick one: cell viability for O.O.O.O.O.O.O.[Cl][La]([Cl])[Cl] [Lanthanum(III) chloride heptahydrate] ?
Response line: 104

Prompt line: Quick one: cell viability for COCCCOc1cc(C[C@@H](C[C@H](N)[C@@H](O)C[C@H](C(=O)NCC(C)(C)C(N)=O)C(C)C)C(C)C)ccc1OC [Aliskiren Hemifumarate] ?
Response line: 98.7

###

- Tested on: MOLM14
- Experiment Description: cell viability relative to vehicle control; higher = less cytotoxic
- Assay Conditions: 10 µM; SRSF2 genotype: SRSF2 wt/wt
Counter-ions that a name gives are not always drawn.
This listing pairs compounds with measured cell viability.
The answer is to be given in %; state only the numeric part.

# example entries with known answers
{"Compound": "NNc1nncc2ccccc12 [Hydralazine hydrochloride]", "cell viability / %": 99}
{"Compound": "C=CCS[S+]([O-])CC=C (stereo not given)", "cell viability / %": 99.8}
{"Compound": "COc1cc2oc(=O)ccc2c(OC)c1C[C@@H](O)C(C)(C)O", "cell viability / %": 106}
{"Compound": "OC[C@@H](O)[C@@H](O)[C@@H](O)CO", "cell viability / %": 94.3}
{"Compound": "Cc1nccn1CCC(C(N)=O)(c1ccccc1)c1ccccc1", "cell viability / %": 101}
{"Compound": "C[C@@H]1O[C@@H](O[C@H]2[C@H](O[C@H]3CC[C@@]4(C)[C@@H](CC[C@]5(C)[C@@H]4CC=C4[C@@H]6CC(C)(C)CC[C@]6(C(=O)O[C@@H]6O[C@H](CO[C@@H]7O[C@H](CO)[C@@H](O)[C@H](O)[C@H]7O)[C@@H](O)[C@H](O)[C@H]6O)CC[C@]45C)[C@]3(C)CO)OC[C@H](O)[C@@H]2O)[C@H](O)[C@H](O[C@@H]2O[C@H](CO)[C@@H](O[C@@H]3O[C@H](CO)[C@@H](O)[C@H](O)[C@H]3O)[C@H](O)[C@H]2O)[C@H]1O", "cell viability / %": 86.6}

Prompt line: Quick one: cell viability for C#C[C@]1(O)CC[C@H]2[C@@H]3CCC4=CC(=O)CC[C@@H]4[C@H]3CC[C@@]21C ?
Response line: 106

Prompt line: Quick one: cell viability for C=C[C@@H]1CNC(=S)O1 [Epigoitrin] ?
Response line: 99.2

Prompt line: Quick one: cell viability for Nc1nc2ccc(OC(F)(F)F)cc2s1 [Riluzole (Rilutek)] ?
Response line: 98.6

Prompt line: Quick one: cell viability for O=C(Nc1cccc(C(F)(F)F)c1)c1cccc2cc(Oc3cc(CO)ncn3)ccc12 ?
Response line: 98.6

Prompt line: Quick one: cell viability for O=C(c1ccc(OCCN2CCCCC2)cc1)c1c(-c2ccc(O)cc2)sc2cc(O)ccc12 [Evista (Raloxifene Hydrochloride)] ?
Response line: 81.3

Prompt line: Quick one: cell viability for Cc1nc2n(c(=O)c1CCN1CCC(c3noc4cc(F)ccc34)CC1)CCCC2 [Risperidone (Risperdal)] ?
Response line: 98.2

Prompt line: Quick one: cell viability for CO[C@@H](C(=O)N1Cc2[nH]nc(NC(=O)c3ccc(N4CCN(C)CC4)cc3)c2C1)c1ccccc1 ?
Response line: 12.9

Prompt line: Quick one: cell viability for C[C@H]1CN(C[C@H](Cc2ccccc2)C(=O)NCC(=O)O)CC[C@@]1(C)c1cccc(O)c1 [Alvimopan dihydrate] ?
Response line: 103

Prompt line: Quick one: cell viability for CN(C)[C@@H](CCOc1cccc2ccccc12)c1ccccc1 [Dapoxetine hydrochloride (Priligy)] ?
Response line: 58.8

###

- Tested on: OCI-AML2
- Experiment Description: cell viability relative to vehicle control; higher = less cytotoxic
- Assay Conditions: 10 µM; SRSF2 genotype: wt/wt
Result Type: cell viability (%)
The answer is to be given in %; state only the numeric part.

# example entries with known answers
{"Compound": "O=C1C(Cl)=C(N2CCOCC2)C(=O)N1c1ccc(Cl)c(Cl)c1", "Result Type": "cell viability", "Val": 96.4}
{"Compound": "CC(/C=C/C=C(\\C)C(=O)O[C@@H]1O[C@H](CO)[C@@H](O)[C@H](O)[C@H]1O)=C\\C=C\\C=C(C)\\C=C\\C=C(/C)C(=O)O[C@@H]1O[C@H](CO[C@@H]2O[C@H](CO)[C@@H](O)[C@H](O)[C@H]2O)[C@@H](O)[C@H](O)[C@H]1O", "Result Type": "cell viability", "Val": 106}
{"Compound": "O=C(OC[C@H]1O[C@@H](OC(=O)c2cc(O)c(O)c(OC(=O)c3cc(O)c(O)c(O)c3)c2)[C@H](OC(=O)c2cc(O)c(O)c(OC(=O)c3cc(O)c(O)c(O)c3)c2)[C@@H](OC(=O)c2cc(O)c(O)c(OC(=O)c3cc(O)c(O)c(O)c3)c2)[C@@H]1OC(=O)c1cc(O)c(O)c(OC(=O)c2cc(O)c(O)c(O)c2)c1)c1cc(O)c(O)c(OC(=O)c2cc(O)c(O)c(O)c2)c1", "Result Type": "cell viability", "Val": 94.8}
{"Compound": "COc1cc(C2Oc3cc([C@H]4Oc5cc(O)cc(O)c5C(=O)[C@@H]4O)ccc3OC2CO)ccc1O (stereo not given in full) [Silibinin (Silybin)]", "Result Type": "cell viability", "Val": 116}

// below: cell viability requested for another compound
Prompt line: Form field: cell viability recorded for Nc1nc(-c2ccco2)c2cnn(Cc3ccccc3F)c2n1 with OCI-AML2 (enter value)
Response line: 88.5

###

- Test system: MOLM14
- Experiment Description: cell viability relative to vehicle control; higher = less cytotoxic
- Assay Conditions: 10 µM; SRSF2 genotype: SRSF2 P95H/wt
Result Type: cell viability (%)
The answer is to be given in %; state only the numeric part.

# example entries with known answers
{"Compound": "CCOc1cc(C(=O)N2CCC(N3CCN(C)CC3)CC2)ccc1Nc1ncc2c(n1)N(C1CCCC1)c1ccccc1C(=O)N2C", "cell viability [%]": 0.3}
{"Compound": "Cc1ccccc1-c1cc(N2CCN(C)CC2)ncc1N(C)C(=O)C(C)(C)c1cc(C(F)(F)F)cc(C(F)(F)F)c1 [Netupitant]", "cell viability [%]": 107}

// below: cell viability requested for another compound
Prompt line: Form field: cell viability recorded for C=C1[C@@H]2CC[C@@H](C2)C1(C)C [Camphene] with MOLM14 (enter value)
Response line: 95

###

- System: MOLM14
- Experiment Description: cell viability relative to vehicle control; higher = less cytotoxic
- Assay Conditions: 10 µM; SRSF2 genotype: SRSF2 P95H/wt
Counter-ions that a name gives are not always drawn.
Result Type: cell viability (%)
The answer is to be given in %; state only the numeric part.

{"Compound": "COC(=O)C1=C(C)NC(C)=C(C(=O)OCCN2CCN(C(c3ccccc3)c3ccccc3)CC2)C1c1cccc([N+](=O)[O-])c1 (centres undefined) [Manidipine dihydrochloride (CV-4093)]", "cell viability [%]": 55.2}
{"Compound": "CC(=O)OC(C)C(C)C(=O)OCC12C3CC(C)(C)[C@H](O[C@@H]1C[C@]1(C)C3=CCC3C4(C)CCC(O[C@@H]5O[C@H](C(=O)O)[C@@H](O[C@H]6O[C@H](CO)[C@@H](O)[C@H](O)[C@H]6O)[C@H](O)[C@H]5O[C@@H]5OC[C@@H](O)[C@H](O)[C@H]5O)[C@](C)(CO)C4CCC31C)C2O (some centres undefined) [Sodium Aescinate]", "cell viability [%]": 89.4}
{"Compound": "Cc1coc2c1C(=O)C(=O)c1c-2ccc2c(C)cccc12 [Tanshinone I]", "cell viability [%]": 76.1}

// below: cell viability requested for another compound
Prompt line: Quick one: cell viability for CNCC[C@@H](Oc1ccccc1C)c1ccccc1 [Atomoxetine HCl] ?
Response line: 101
